# key: entry, value: viability at 48 h, 0.003 µM
Test: in vitro
Conditions: mouse, swiss 3t3 fibroblasts
Text: A third assay utilized in the present invention involves an in vitro cytotoxicity assay. This assay is used to further characterize the compounds in order to assess toxic activities of compounds on contact inhibited, non-dividing 3T3 fibroblasts. […] On day of assay, cells are detached from flasks by trypsinization, washed in medium and counted. […] Results are expressed as percent cytotoxicity, i.e., (mean OD of compound wells - background OD)/ (mean OD of controls - background). […]
Give the quantity in %, number only.

molecule	result unit	viability at 48 h, 0.003 µM
CN(Cc1cnc2nc(N)nc(N)c2n1)c1ccc(C(=O)N[C@@H](CCC(=O)O)C(=O)O)cc1 [Methotrexate]	%	105

Turning now to a further record.
# viability at 48 h, 0.003 µM lookup, item C[C@@H]1C[C@H]2[C@@H]3CCC4=CC(=O)C=C[C@]4(C)[C@@]3(F)[C@@H](O)C[C@]2(C)[C@@]1(O)C(=O)CO [Dexamethasone]
77.9

Source listed as patent EP1501797B1.
